The origin of these recorded values is patent US20200261595A1.

Target: insulin receptor of isolated rat adipocytes (rat, UniProt P15127 27-1383)
Sequence (P15127 27-1383): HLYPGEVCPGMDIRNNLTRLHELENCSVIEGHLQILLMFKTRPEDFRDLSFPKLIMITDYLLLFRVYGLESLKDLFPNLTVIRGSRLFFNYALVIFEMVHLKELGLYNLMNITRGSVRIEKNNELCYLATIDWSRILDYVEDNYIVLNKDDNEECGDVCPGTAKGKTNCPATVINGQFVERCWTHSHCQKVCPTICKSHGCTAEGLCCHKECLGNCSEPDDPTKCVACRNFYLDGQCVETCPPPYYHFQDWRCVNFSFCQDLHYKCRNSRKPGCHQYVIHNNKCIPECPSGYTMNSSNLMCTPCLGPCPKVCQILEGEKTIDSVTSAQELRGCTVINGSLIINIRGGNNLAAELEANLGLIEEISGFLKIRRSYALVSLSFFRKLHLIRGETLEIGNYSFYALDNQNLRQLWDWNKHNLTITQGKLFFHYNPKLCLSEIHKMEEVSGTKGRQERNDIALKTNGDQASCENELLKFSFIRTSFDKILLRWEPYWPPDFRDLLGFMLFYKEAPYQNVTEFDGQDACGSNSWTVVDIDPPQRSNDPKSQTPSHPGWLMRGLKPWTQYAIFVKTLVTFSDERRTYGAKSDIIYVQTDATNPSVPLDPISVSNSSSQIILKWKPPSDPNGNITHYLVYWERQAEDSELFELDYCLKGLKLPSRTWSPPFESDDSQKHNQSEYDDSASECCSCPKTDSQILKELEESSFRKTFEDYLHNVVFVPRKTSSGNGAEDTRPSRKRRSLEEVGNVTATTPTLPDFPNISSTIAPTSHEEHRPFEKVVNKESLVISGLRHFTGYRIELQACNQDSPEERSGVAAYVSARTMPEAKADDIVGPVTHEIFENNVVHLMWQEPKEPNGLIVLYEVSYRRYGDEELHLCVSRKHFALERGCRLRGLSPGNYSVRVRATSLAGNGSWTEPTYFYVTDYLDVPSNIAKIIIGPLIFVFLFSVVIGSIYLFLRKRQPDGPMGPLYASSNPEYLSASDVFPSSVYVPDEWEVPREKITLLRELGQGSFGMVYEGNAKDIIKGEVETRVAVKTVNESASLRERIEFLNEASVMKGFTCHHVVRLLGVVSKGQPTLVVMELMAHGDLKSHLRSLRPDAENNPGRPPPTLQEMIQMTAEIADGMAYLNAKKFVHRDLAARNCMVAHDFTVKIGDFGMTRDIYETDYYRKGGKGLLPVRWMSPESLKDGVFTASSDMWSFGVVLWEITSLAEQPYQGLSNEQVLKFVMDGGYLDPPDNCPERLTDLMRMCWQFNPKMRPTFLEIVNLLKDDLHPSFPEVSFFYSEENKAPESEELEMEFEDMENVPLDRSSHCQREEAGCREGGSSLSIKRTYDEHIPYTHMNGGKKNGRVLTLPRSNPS
Experiment: cell-based or functional assay
Reported metric: Lipogenesis in rat adipocytes [Potency (%)] Mean Value

* A14E, A21Q, A22(G)18, A40K^, B25H, B29R, desB30 human insulin/(227A, 234A, 235K hIgG4-Fc(228-447)) 4-[bis[2-[(2-acetyl)amino]ethyl]amino]-4-oxo-butanoyl … (other, Cys229 (EU numbering) sulphur bound to an acetyl arm of the linker; A40K N(eps) acylated by the trivalent linker 4-[bis[2-[(2-acetyl)amino]ethyl]amino]-4-oxo-butanoyl, also called Ex 5.21) chain 1: GIVEQCCTSICSLEQLENYCQGGGGGGGGGGGGGGGGGGK chain 2: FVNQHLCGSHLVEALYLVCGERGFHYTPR chain 3: ASCPAPEAKGGPSVFLFPPKPKDTLMISRTPEVTCVVVDVSQEDPEVQFNWYVDGVEVHNAKTKPREEQFNSTYRVVSVLTVLHQDWLNGKEYKCKVSNKGLPSSIEKTISKAKGQPREPQVYTLPPSQEEMTKNQVSLTCLVKGFYPSDIAVEWESNGQPENNYKTTPPVLDSDGSFFLYSRLTVDKSRWQEGNVFSCSVMHEALHNHYTQKSLSLSLGK | 0.95 % of human insulin
